Assign IC50 of cell killing, HPAF-II cells, ADC killing assay to each entry below.
- tgt: membrane-bound tissue factor (TF) on cells (human, UniProt P13726 33-295)
- method.description: cell-based or functional assay
Report only the number, with the unit ng/mL understood.

Challenge: # return recorded IC50 of cell killing, HPAF-II cells, ADC killing assay for entry HuMab-TF-111-mcMMAF (antibody, IgG1, V domains shown, mcMMAF drug-linker alkylated to cysteines of the reduced antibody (positions not given), DAR 4.1 by RP-HPLC, 4.2 by HIC) VH: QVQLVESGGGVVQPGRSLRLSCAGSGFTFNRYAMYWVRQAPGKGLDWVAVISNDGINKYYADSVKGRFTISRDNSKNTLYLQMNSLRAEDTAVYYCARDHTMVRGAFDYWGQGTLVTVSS VL: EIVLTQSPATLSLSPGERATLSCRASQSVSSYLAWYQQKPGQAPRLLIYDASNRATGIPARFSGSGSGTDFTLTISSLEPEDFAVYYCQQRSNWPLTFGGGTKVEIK
Response given: 15

Challenge: Item HuMab-TF-111-vcMMAE (antibody, IgG1, V domains shown, vcMMAE drug-linker alkylated to cysteines of the reduced antibody (positions not given), DAR 4.3 by RP-HPLC, 4.1 by HIC) VH: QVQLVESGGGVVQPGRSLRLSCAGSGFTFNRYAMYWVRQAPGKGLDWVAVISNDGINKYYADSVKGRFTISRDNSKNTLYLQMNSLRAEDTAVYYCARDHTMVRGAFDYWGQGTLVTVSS VL: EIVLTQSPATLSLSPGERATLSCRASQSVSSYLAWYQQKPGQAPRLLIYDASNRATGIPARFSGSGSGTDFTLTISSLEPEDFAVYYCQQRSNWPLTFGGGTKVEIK : provide IC50 of cell killing, HPAF-II cells, ADC killing assay
Response given: 4

Challenge: Annotate the binder HuMab-TF-098-mcMMAF (antibody, IgG1, V domains shown, mcMMAF drug-linker alkylated to cysteines of the reduced antibody (positions not given), DAR 4.0 by RP-HPLC, 3.9 by HIC) VH: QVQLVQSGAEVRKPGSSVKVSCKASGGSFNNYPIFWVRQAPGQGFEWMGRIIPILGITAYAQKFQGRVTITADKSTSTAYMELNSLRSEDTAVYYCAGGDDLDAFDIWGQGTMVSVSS VL: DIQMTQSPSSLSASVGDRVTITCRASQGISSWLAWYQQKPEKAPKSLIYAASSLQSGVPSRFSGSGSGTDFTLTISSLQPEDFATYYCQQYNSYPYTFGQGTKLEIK with its measured IC50 of cell killing, HPAF-II cells, ADC killing assay.
Response given: 5
